system: WSU-DLCL2 CRBN^WT cells; assay: Cell proliferation in CRBN^WT (CAS9 control) cells, 5 days; format: cell-based; settings: Homo sapiens, WSUDLCL2, 120 h
ATTRIBUTE MEASURED: IC50 (nM)
Numbers only here, please. The scale is nM.

Q: Can you share its IC50? I mean this compound: O=C1CC[C@H](N2C(=O)c3cccc(NCc4ccc(CN5CC(N6CCOCC6)C5)cc4F)c3C2=O)C(=O)N1
Result: 40

----------
system: WSU-DLCL2 DoxoR; assay: Viable cells/apoptosis in doxorubicin-resistant and matching parental lines; assay type: cell-based; conditions: Homo sapiens, WSUDLCL2, read-out: Doxorubicin IC50
ATTRIBUTE MEASURED: pIC50
The read-out pIC50 is expressed as -log10 of concentration in moles per litre.

Q: Sample COc1cccc2c1C(=O)c1c(O)c3c(c(O)c1C2=O)C[C@@](O)(C(=O)CO)C[C@@H]3O[C@H]1C[C@H](N)[C@H](O)[C@H](C)O1 [Doxorubicin, reference compound] — what was its pIC50?
Result: 5.80

These measurements were taken from patent US20210116454A1.
